- Tested on: human erythrocytes
- protocolNotes: protection of human erythrocytes from AAPH-induced lysis
- Assay type: cell-based
- details: Homo sapiens, Erythrocyte, 3 h; 100 mM AAPH, 10% RBC suspension, 37° C., 180 min; read-out: concentration of the agent that elicits 50% inhibition of cells lysis (IC50)
- Protocol: In this example, experiments were conducted with human erythrocytes, subjecting them to free radicals generated by thermal activation of AAPH in a reaction mixture in the absence and in the presence of various amounts of purpurogallin or Trolox, to determine the cytoprotective capability of purpurogallin under these conditions. Freshly obtained human erythrocytes were washed at least three times in saline with centrifugation at 1500 g×10 min. […]
quantityMeasured: IC50 (µM)
Express the result in µM but write the number alone.

Reported IC50 for `O=c1c(O)cccc2cc(O)c(O)c(O)c12` was 120
